Numbers sourced from ChEMBL document CHEMBL3988442.

Percent Effect overview
- System: Wolbachia pipientis
- method: Anti-Wolbachia Cell-Based Screen
- Format: functional
- Design: scale not given: in the data most compounds retested in dose-response had high values
- conditions: 5 µM
About 13,000 (27%) of roughly 48,000 compounds showed an effect of 50% or more. The list shows a part of the results.
Answer in %, number only, no unit symbol.

So for CCc1cnccc1C(=O)NC1CCN(C(=O)C2CCCCC2)CC1 , the logged Percent Effect turned out to be 87.11

Continuing:
The molecule listed as COc1cc(Cl)cc(C(=O)N2CCC3(CCCNC3)C2)c1 (stereo not given) shows Percent Effect equal to -2.555

In plain terms, Cc1cnn(CCCNC(=O)NC(C)C(=O)Nc2ccccc2)c1 (stereo not given) has a documented Percent Effect of 105.3

----------
- Tested on: Wolbachia pipientis
- method: Anti-Wolbachia Cell-Based Screen
- Format: functional
- Set-up: scale not given: in the data most compounds retested in dose-response had high values
- conditions: 5 µM
About 13,000 (27%) of roughly 48,000 compounds showed an effect of 50% or more. Some of the results follow.
Label Fulfilled when Percent Effect >= 20%; otherwise Not fulfilled.

Use the examples below as a reference point.
Ask | Textbook exercise: given the entry CN(Cc1cc2n(n1)CCN(C(=O)[C@H]1CCCO1)C2)Cc1nccs1 , state whether its Percent Effect is greater than or equal to 20%.
Reply | Fulfilled

Ask | Is reported Percent Effect greater than or equal to 20% here: Cc1cc(NC(=O)NC(C)CO)ccc1OCC(F)(F)F (configuration not stated)
Reply | Not fulfilled

New cases:
Ask | Dear colleague, could you confirm whether Cn1cc(C(=O)N2CC[C@@H]3[C@@H]2CCN3Cc2cccc(C#N)c2)cn1.O=C(O)C(F)(F)F has Percent Effect at or above 20%?
Reply | Not fulfilled

Ask | Has CC1CN=C(N2CCN(C(=O)Nc3nc(-c4ccccc4)ns3)CC2)S1 (configuration not stated) a recorded Percent Effect greater than or equal to 20%?
Reply | Not fulfilled

Ask | Dear colleague, could you confirm whether COc1ccc(C[C@@H]2CC[C@H](CN(C)C3CCN(C)CC3)O2)cc1 has Percent Effect at or above 20%?
Reply | Not fulfilled

Ask | Check if Percent Effect >= 20% (inclusive). Item: CCc1nnc2n1CCN(C(=O)c1cn(-c3ccccc3)nn1)C2
Reply | Fulfilled

Ask | For this compound, is measured Percent Effect 20% or higher? CC(C)c1noc(-c2ccc(N(C)C3CCOCC3)nc2)n1
Reply | Not fulfilled

Ask | Textbook exercise: given the entry CCOc1cccc(C(=O)N2CCCn3nc(CCC(=O)O)cc3C2)c1 , state whether its Percent Effect is greater than or equal to 20%.
Reply | Not fulfilled

Ask | Check if Percent Effect >= 20% (inclusive). Item: CC(=O)Nc1nc(CN2CCn3c(C)nnc3C2)cs1
Reply | Fulfilled

Ask | In plain terms: is recorded Percent Effect at least 20% for Cn1cc(N2C(=O)CC[C@@H]3[C@H]2CCN3CCc2ccccc2)cn1.O=C(O)C(F)(F)F.O=C(O)C(F)(F)F ?
Reply | Fulfilled

Ask | Is Percent Effect at least 20%? Consider COc1ccc(CCC(=O)Nc2ccncc2C)cc1
Reply | Not fulfilled

Ask | Kindly determine if Percent Effect recorded for CCOCCn1nc(C)cc1C(=O)N1CC[C@@](O)(COC)C(C)(C)C1 is above or exactly 20%.
Reply | Not fulfilled

Ask | Quick check, Percent Effect >= 20%? Cc1nnc2n1CCN(C(=O)c1cn(-c3ccc(F)cc3)nn1)C2
Reply | Fulfilled

Ask | Record CCN1CC(COC(C)(C)C)Oc2ccncc2S1(=O)=O (configuration not stated) ; criterion: Percent Effect no lower than 20%. Met?
Reply | Fulfilled

Ask | Evaluate CN(CC1CCCO1)c1nc(-c2cccnc2)nc2c1CCNCC2 (configuration not stated) : Percent Effect at minimum 20%?
Reply | Not fulfilled

Ask | Is Percent Effect for CCn1c(C)nnc1CN(C)C1CCN(Cc2nnc(C3CC3)o2)C1 (configuration not stated) at or above 20%?
Reply | Fulfilled

Ask | Is the recorded value of Percent Effect equal to or greater than 20% for this compound? CCc1nnc2n1CCN(Cc1csc(-c3ccccc3F)n1)C2
Reply | Not fulfilled

Ask | Would you say CCn1c(C)nnc1CN(C)C1CCN(Cc2cnc(C)cn2)C1 (configuration not stated) shows Percent Effect at minimum 20%?
Reply | Not fulfilled

Ask | Form field: Percent Effect at least 20%? Entry: CCS(=O)(=O)NC1CCCN(Cc2ccn(C)c(=O)c2)C1 (configuration not stated)
Reply | Not fulfilled

----------
- Tested on: Wolbachia pipientis
- method: Anti-Wolbachia Cell-Based Screen
- Type: functional
- Parameters: scale not given: in the data most compounds retested in dose-response had high values
- conditions: 5 µM
In all, about 48,000 compounds went through this assay and about 13,000 (27%) showed an effect of 50% or more. This is one part of the list.
parameter: Percent Effect (%)
Write the number in % without appending the unit.

The examples below pair each entry with its known result.
Record CC(C)n1cc(CN2CCCN(C(=O)c3cccnc3O)CC2)cn1 . Reported Percent Effect: -1.686

In plain terms, COCCN1CCO[C@@H]2CN(Cc3ccc(C)o3)C[C@@H]2C1.O=C(O)C(F)(F)F.O=C(O)C(F)(F)F has a documented Percent Effect of 4.147

COc1ccc(CN2CCCC(n3cccn3)C2)c(Cl)c1OC (stereo unspecified) has a reported Percent Effect of 1.14

Kindly note the recorded Percent Effect for Cc1ccc(-c2cnnc(NCC3(N4CCOCC4)CCCC3)n2)o1 , which is 10.34

***
Looking up CC(=O)c1cccc(OCC(=O)NS(=O)(=O)c2ccc(C)s2)c1 , I found its Percent Effect recorded as 0.05865

So for COc1cc(C)ccc1OCC(=O)NS(=O)(=O)c1ccc(Br)s1 , the logged Percent Effect turned out to be 133.3

Item: CN1CCN(c2ccc(C(=O)N3CCCC(c4ncc[nH]4)C3)cc2)CC1 (stereo unspecified) | Percent Effect: -9.853

Per the record, O=C(c1ccc(C(F)(F)F)cc1)N1C[C@@H](CN2CCCCC2)[C@@H](CO)C1 has Percent Effect of -17.56

// Percent Effect value for CCN(CC)CCNC(=O)c1cnc(C(C)(C)C)s1 : -7.701

Entry C1CC(NCc2nnc(C3CC3)o2)CN(Cc2noc(C3CC3)n2)C1 (stereo unspecified) , Percent Effect reported as 132.9

// sample COc1ccc(OCC(=O)NS(=O)(=O)c2ccc(Cl)s2)cc1 , its Percent Effect was 9.961

Input N#Cc1ccc(C(=O)N2CCC(c3ncc[nH]3)CC2)cn1 . Output Percent Effect: 118.6

Data point: CCc1ncc(C(=O)N2CCN(Cc3ncccc3C)CC2)cn1 ; Percent Effect = 86.86

Entry CCC(NC(=O)c1coc(COc2cccc(F)c2F)n1)C(=O)NC (stereo unspecified) — recorded Percent Effect = -19.24

Per the records, this compound ( N#CCc1ccc(OCC(=O)NS(=O)(=O)c2ccc(Br)s2)cc1 ) has Percent Effect equal to -7.056

Reported Percent Effect for Cc1nnc(NCc2ccc(SC(F)F)cc2)o1 was -21.33

----------
- Test system: Wolbachia pipientis
- method: Anti-Wolbachia Cell-Based Screen
- Type: functional
- Parameters: scale not given: in the data most compounds retested in dose-response had high values
- conditions: 5 µM
Among all 48,000 compounds or so, about 13,000 (27%) showed an effect of 50% or more. The list shows a part of the results.
parameter: Percent Effect (%)
Expressed in %, but write only the number.

The recorded Percent Effect for entry Cc1nc(S(=O)(=O)NCCC(=O)NCc2ccc(C#N)cc2)cn1C equals -22.12

***
Record summary for Cc1ccc2c(c1)nc1n2[C@@H](CNC(=O)c2ccccn2)COC1 : reported Percent Effect = 6.729

Field Percent Effect (entry CC(C)n1cnnc1CN(C)Cc1ccc(CO)o1 ) reads -7.369

----------
- System: Wolbachia pipientis
- method: Anti-Wolbachia Cell-Based Screen
- Format: functional
- Set-up: scale not given: in the data most compounds retested in dose-response had high values
- conditions: 5 µM
Out of some 48,000 compounds screened, about 13,000 (27%) showed an effect of 50% or more. This is one part of the list.
parameter: Percent Effect (%)
Quick reminder: number only, in %, skip the unit.

Noted Percent Effect for Cc1ccccc1N1CCN(C(=O)CC(C)C)CC1 , tested on Wolbachia pipientis: -38.06

Record Cc1nnc2ccc(NCC3(N4CCCCC4)CCOCC3)nn12 ; system Wolbachia pipientis; Percent Effect = -7.148

Reading of Percent Effect for CCS(=O)(=O)N1CCc2cc(C(=O)N(C)C)c(NCC3CC3)nc2CC1 with Wolbachia pipientis: 112.1

Kindly note: Wolbachia pipientis, Cc1nn2cccnc2c1C(=O)NCc1ccccc1OC1CCC1 , Percent Effect value reported: -16.31

Query COC(=O)CC1CN(Cc2ccn(-c3ccc(F)cc3)n2)CCO1 (stereo unspecified) on Wolbachia pipientis; Percent Effect returned: -16.13

Next:
Given the compound Cc1ncsc1C(=O)N1CCC(c2ncncc2-c2ccnc(N)c2)C1 (stereo unspecified) and test system Wolbachia pipientis, the measured Percent Effect is 113.1
